Listed next: entries and their corresponding IC50.
TARGET_OR_SYSTEM: Human KIF18A (amino acid sequence 1-417) (Homo sapiens, UniProt Q8NI77)
Construct: purchased Viva Biotech (Shanghai) Ltd
TEST: Enzymatic activity test (ADP-Glo, microtubule-stimulated ATPase)
Type: biochemical
MEASUREMENT_SETUP: KIF18A IC50 nM, 60 µg/mL microtubules, 25 µM ATP, 2.5 nM KIF18A protein, 120 min at ambient temperature, chemiluminescence
Method: Materials: Human KIF18A (amino acid sequence 1-417) was purchased from Viva Biotech (Shanghai) Ltd.; the ADP-Glo™ protein kinase kit was acquired from Promega, USA; tubulin was sourced from Cytoskeleton, USA; and the 384-well assay plate and Envision multifunctional microplate reader were obtained from PerkinElmer, USA. Enzymatic Activity Test: The compound powder was dissolved in DMSO to prepare a stock solution of 10 mM. […]
ENDPOINT_NAME: IC50

{"COMPOUND": "COc1cc2nc(n1)N1CCC(F)(F)C(C=CCc3cccc(c3)-c3cc(NS(=O)(=O)CCO)ccc3C(=O)N2)C1 (centres unmarked)", "RESULT": "1560 nM"}
{"COMPOUND": "Cc1cc2nc(n1)N1CCC(F)(F)C(/C=C\\Cc3ccc(cc3)-c3cc(NS(=O)(=O)CCO)ccc3C(=O)N2)C1 (centres unmarked)", "RESULT": "167 nM"}

###

Test system: OVCAR3 cells
TEST: Cell proliferation activity test (CyQUANT Direct)
Type: cell-based
MEASUREMENT_SETUP: Homo sapiens, OVCAR-3, 72 h, 3 days, 0.2% DMSO, CyQUANT fluorescence
Below is a list of entries, each paired with its recorded IC50 value.

{"COMPOUND": "COC(=O)c1cc2c(cc1NS(=O)(=O)CCO)N1CCC(C/C=C/C3CN(CCC3(F)F)c3nc(C)cc(n3)-c3cn-2nn3)CC1 (stereo not drawn) [Example 92A]", "MODIFIER": "=", "IC50 (nM)": 141}
{"COMPOUND": "CC(=O)c1cc2c(cc1NS(=O)(=O)CCO)N1CCC(C/C=C/C3CN(CCC3(F)F)c3nc(C)cc(n3)-c3cn-2nn3)CC1 (racemic)", "MODIFIER": ">", "IC50 (nM)": 3000}
{"COMPOUND": "Cc1cc2nc(n1)N1CCC(F)(F)C(/C=C\\CC3CCN(CC3)c3cc(NS(=O)(=O)CCO)c4c(c3C(=O)N2)OCC4=O)C1 (stereo not drawn) [Example 14B]", "MODIFIER": ">", "IC50 (nM)": 3000}
{"COMPOUND": "Cc1cc2nc(n1)N1CCC(F)(F)C(/C=C\\CC3CCN(CC3)c3cc(NS(=O)(=O)C(C)(C)CO)c4c(c3C(=O)N2)CCC4=O)C1 (stereo not drawn)", "MODIFIER": "=", "IC50 (nM)": 96}
{"COMPOUND": "Cc1cc2nc(n1)N1CCC(F)(F)C(CCCC3=CC=C(S3)c3cc(NS(=O)(=O)CCO)ccc3C(=O)N2)C1 (stereo not drawn)", "MODIFIER": "=", "IC50 (nM)": 116}
{"COMPOUND": "Cc1cc2nc(n1)N1CCC(F)(F)C(CC=Cc3ccc(nc3)-c3cc(NS(=O)(=O)CCO)ccc3C(=O)N2)C1 (stereo not drawn)", "MODIFIER": "=", "IC50 (nM)": 1210}

###

TARGET_OR_SYSTEM: Human KIF18A (amino acid sequence 1-417) (Homo sapiens, UniProt Q8NI77)
Construct: purchased Viva Biotech (Shanghai) Ltd
Sequence (Q8NI77 1-417): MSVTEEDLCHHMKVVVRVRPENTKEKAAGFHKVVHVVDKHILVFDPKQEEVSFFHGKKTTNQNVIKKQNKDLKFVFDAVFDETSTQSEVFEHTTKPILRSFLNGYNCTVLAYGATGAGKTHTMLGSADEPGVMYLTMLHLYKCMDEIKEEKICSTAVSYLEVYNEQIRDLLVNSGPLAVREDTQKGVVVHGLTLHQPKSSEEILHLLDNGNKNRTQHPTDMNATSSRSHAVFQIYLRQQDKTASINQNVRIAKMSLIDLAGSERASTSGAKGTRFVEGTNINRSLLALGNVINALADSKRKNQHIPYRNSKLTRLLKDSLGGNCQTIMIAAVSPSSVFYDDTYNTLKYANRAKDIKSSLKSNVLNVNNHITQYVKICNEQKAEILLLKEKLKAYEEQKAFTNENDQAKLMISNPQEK
TEST: Enzymatic activity test (ADP-Glo, microtubule-stimulated ATPase)
Assay type: biochemical
MEASUREMENT_SETUP: 60 µg/mL microtubules, 25 µM ATP, 2.5 nM KIF18A protein, 120 min at ambient temperature, chemiluminescence; read-out: KIF18A IC50
Consider the following molecules and their measured IC50 readings.

{"MOLECULE": "COc1cc2nc(n1)N1CCC(F)(F)C(CCC3=CC=C(S3)c3cc(NS(=O)(=O)CCO)ccc3C(=O)N2)C1 (stereo not drawn)", "TARGET_OR_SYSTEM": "Human KIF18A (amino acid sequence 1-417) (Homo sapiens, UniProt Q8NI77)", "UNIT_ABBREVIATION": "nM", "IC50": 60}
{"MOLECULE": "Cc1cc2nc(n1)N1CCC(F)(F)C(CCc3ccc(cc3)-c3cc(NS(=O)(=O)CCO)ccc3C(=O)N2)C1 (stereo not drawn)", "TARGET_OR_SYSTEM": "Human KIF18A (amino acid sequence 1-417) (Homo sapiens, UniProt Q8NI77)", "UNIT_ABBREVIATION": "nM", "IC50": 114}
{"MOLECULE": "COC(=O)c1cc2c(cc1NS(=O)(=O)CCO)N1CCC(C/C=C/C3CN(CCC3(F)F)c3nc(C)cc(n3)-c3cn-2nn3)CC1 (stereo not drawn) [Example 92A]", "TARGET_OR_SYSTEM": "Human KIF18A (amino acid sequence 1-417) (Homo sapiens, UniProt Q8NI77)", "UNIT_ABBREVIATION": "nM", "IC50": 427}
{"MOLECULE": "Cc1cc2nc(n1)N1CCC(F)(F)C(/C=C\\CC3CCN(CC3)c3cc(NS(=O)(=O)CCO)c4c(c3C(=O)N2)CCC4)C1 (stereo not drawn)", "TARGET_OR_SYSTEM": "Human KIF18A (amino acid sequence 1-417) (Homo sapiens, UniProt Q8NI77)", "UNIT_ABBREVIATION": "nM", "IC50": 404}
{"MOLECULE": "Cc1cc2nc(n1)N1CCC(F)(F)C(CCCc3ccc(cc3)-c3cc(NS(=O)(=O)CCO)ccc3C(=O)N2)C1 (single isomer, unassigned) [Example 46B]", "TARGET_OR_SYSTEM": "Human KIF18A (amino acid sequence 1-417) (Homo sapiens, UniProt Q8NI77)", "UNIT_ABBREVIATION": "nM", "IC50": 57}
{"MOLECULE": "Cc1cc2nc(n1)N1CCC(F)(F)C(CCCC3=CC=C(S3)c3cc(NS(=O)(=O)CCO)ccc3C(=O)N2)C1 (stereo not drawn)", "TARGET_OR_SYSTEM": "Human KIF18A (amino acid sequence 1-417) (Homo sapiens, UniProt Q8NI77)", "UNIT_ABBREVIATION": "nM", "IC50": 67}
{"MOLECULE": "Cc1cc2nc(n1)N1CCC(F)(F)C(CCCc3ccc(cc3)-c3cc(NS(=O)(=O)CCO)ccc3C(=O)N2)C1 (single isomer, unassigned) [Example 46A]", "TARGET_OR_SYSTEM": "Human KIF18A (amino acid sequence 1-417) (Homo sapiens, UniProt Q8NI77)", "UNIT_ABBREVIATION": "nM", "IC50": 117}
{"MOLECULE": "Cc1cc2nc(n1)N1CCC(F)(F)C(/C=C/CC3CCN(CC3)c3cc(NS(=O)(=O)CCO)c4ccccc4c3C(=O)N2)C1 (single isomer, unassigned) [Example 1D]", "TARGET_OR_SYSTEM": "Human KIF18A (amino acid sequence 1-417) (Homo sapiens, UniProt Q8NI77)", "UNIT_ABBREVIATION": "nM", "IC50": 211}
{"MOLECULE": "COc1cc2nc(n1)N1CCC(F)(F)C(CCCc3ccc(cc3)-c3cc(NS(=O)(=O)CCO)ccc3C(=O)N2)C1 (single isomer, unassigned) [Example 51A]", "TARGET_OR_SYSTEM": "Human KIF18A (amino acid sequence 1-417) (Homo sapiens, UniProt Q8NI77)", "UNIT_ABBREVIATION": "nM", "IC50": 107}
{"MOLECULE": "Cc1cc2nc(n1)N1CCC(F)(F)C(C=CCC3=CC=C(S3)c3cc(NS(=O)(=O)CCO)ccc3C(=O)N2)C1 (stereo not drawn) [Example 57]", "TARGET_OR_SYSTEM": "Human KIF18A (amino acid sequence 1-417) (Homo sapiens, UniProt Q8NI77)", "UNIT_ABBREVIATION": "nM", "IC50": 52}
{"MOLECULE": "Cc1cc2nc(n1)N1CCC(F)(F)C(/C=C\\CC3CCN(CC3)c3cc(NS(=O)(=O)CCO)ccc3-c3cn-2nn3)C1 (single isomer, unassigned) [Example 84A]", "TARGET_OR_SYSTEM": "Human KIF18A (amino acid sequence 1-417) (Homo sapiens, UniProt Q8NI77)", "UNIT_ABBREVIATION": "nM", "IC50": 309}
{"MOLECULE": "Cc1cc2nc(n1)N1CCC(F)(F)[C@@H](CCCC3CCN(CC3)c3cc(NS(=O)(=O)CCO)c4c(c3C(=O)N2)CCC4=O)C1 [Example 6]", "TARGET_OR_SYSTEM": "Human KIF18A (amino acid sequence 1-417) (Homo sapiens, UniProt Q8NI77)", "UNIT_ABBREVIATION": "nM", "IC50": 73}
